From: ChEMBL document CHEMBL3351857

test.target: Aryl hydrocarbon receptor (Homo sapiens)
Sequence (P35869 whole entry): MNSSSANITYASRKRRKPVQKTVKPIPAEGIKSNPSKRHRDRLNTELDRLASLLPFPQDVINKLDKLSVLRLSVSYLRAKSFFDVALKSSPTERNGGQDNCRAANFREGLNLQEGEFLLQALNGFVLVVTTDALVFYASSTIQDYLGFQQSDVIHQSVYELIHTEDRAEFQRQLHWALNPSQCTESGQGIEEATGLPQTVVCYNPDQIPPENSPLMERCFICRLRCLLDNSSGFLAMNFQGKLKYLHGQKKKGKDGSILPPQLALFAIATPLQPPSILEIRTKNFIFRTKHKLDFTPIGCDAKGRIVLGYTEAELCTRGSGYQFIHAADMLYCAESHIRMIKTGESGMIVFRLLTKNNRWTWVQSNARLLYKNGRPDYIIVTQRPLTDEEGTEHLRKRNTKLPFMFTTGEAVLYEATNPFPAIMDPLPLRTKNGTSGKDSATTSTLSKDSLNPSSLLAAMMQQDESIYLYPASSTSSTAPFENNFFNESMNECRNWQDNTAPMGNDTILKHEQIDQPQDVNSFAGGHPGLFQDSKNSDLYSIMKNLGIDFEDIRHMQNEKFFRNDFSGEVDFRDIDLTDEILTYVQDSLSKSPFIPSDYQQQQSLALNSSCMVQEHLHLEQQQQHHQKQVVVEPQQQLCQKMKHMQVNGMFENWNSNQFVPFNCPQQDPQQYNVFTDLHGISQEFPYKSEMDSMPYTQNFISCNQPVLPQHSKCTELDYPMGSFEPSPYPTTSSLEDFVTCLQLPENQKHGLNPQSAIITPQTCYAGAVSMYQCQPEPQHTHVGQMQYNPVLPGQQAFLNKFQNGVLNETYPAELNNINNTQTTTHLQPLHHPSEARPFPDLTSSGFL
protocol.description: Activation of AhR in human HepG2 cells assessed as fluorescence after 24 hrs incubation by EROD assay
Assay type: cell-based
pEC50: −log10 of the molar value.
property.label: pEC50

The compound "Clc1ccc2[nH]cc(Cc3cc4ccccc4[nH]3)c2c1" on Aryl hydrocarbon receptor (Homo sapiens): pEC50 was < 5.17
